# TARGET OF ASSAY: CBX1 chromodomain Y26AzF/D54AzF (UniProt P83916 20-73, Y26AzF, 4-azido-L-phenylalanine (AzF) at 26 and at 54)
# Sequence (P83916 whole entry, looked up, change not shown, tested part not stated): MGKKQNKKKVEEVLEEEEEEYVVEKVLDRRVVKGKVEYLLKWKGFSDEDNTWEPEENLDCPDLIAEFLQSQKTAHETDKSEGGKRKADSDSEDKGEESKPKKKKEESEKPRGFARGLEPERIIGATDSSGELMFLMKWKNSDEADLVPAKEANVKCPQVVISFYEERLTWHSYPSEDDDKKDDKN
# ASSAY METHOD TEXT: fluorescence polarisation
REPORTED ENDPOINT: Kd (µM)
Answer with a number only, understood to be in µM.

Task item: Please indicate Kd recorded for ARTKQTARKSTGGKA (trimethyllysine at K9; tetramethyl rhodamine (TAMRA) at the N-terminus) [TAMRA-H3K9me3 tracer peptide 2]
Reply: 50.8
